experimentalDetails: log P by HPLC on a reversed-phase column (C 18), EEC Directive 79/831 Annex V.A8
Assay type: physicochemical
conditionLabel: HPLC, reversed-phase column (C 18), 40° C.; 0.1% aqueous formic acid and acetonitrile, linear gradient 10% to 90% acetonitrile
readoutKind: logP

Worked cases, answers included:
CCC1(c2cc(Cl)ccc2CN(C(=O)c2cc(C)oc2C)C2CC2)CC1 [Example 1.071] = 5.34
CCC1(c2ccc(C)cc2CN(C(=O)c2c(OC(F)F)nn(C)c2C(F)(F)F)C2CC2)CC1 [Example 1.100] = 5.35
CCC1(c2ccc(C)cc2CN(C(=O)c2c(C)nn(C)c2Cl)C2CC2)CC1 [Example 1.096] = 4.36
Cn1cc(C(=O)N(Cc2cc(Cl)ccc2C2(C)CC2)C2CC2)c(C(F)F)n1 [Example 1.029] = 3.83
Cc1ccc(C2(C(F)F)CC2)c(CN(C(=O)c2c(C)nn(C)c2F)C2CC2)c1 [Example 1.139] = 3.21
Cc1ccc(C2(C)CC2)c(CN(C(=O)c2c(C(F)F)nn(C(C)(C)C)c2C(F)F)C2CC2)c1 [Example 1.039] = 5.35

I. CCC1(c2ccc(C)cc2CN(C(=O)c2cc(C)oc2C(F)F)C2CC2)CC1 [Example 1.095]
II. CCC1(c2cccc(F)c2CN(C(=O)c2c(C)nn(C)c2F)C2CC2)CC1 [Example 1.103]
Query string: Please indicate which has the smaller reported logP: I , or II . Give the label under which the chosen entry appears.
Result string: II
